# TARGET OR SYSTEM: hamster Abcb1a Pgp (Cricetulus griseus, UniProt P21448)
# Sequence (P21448 whole entry): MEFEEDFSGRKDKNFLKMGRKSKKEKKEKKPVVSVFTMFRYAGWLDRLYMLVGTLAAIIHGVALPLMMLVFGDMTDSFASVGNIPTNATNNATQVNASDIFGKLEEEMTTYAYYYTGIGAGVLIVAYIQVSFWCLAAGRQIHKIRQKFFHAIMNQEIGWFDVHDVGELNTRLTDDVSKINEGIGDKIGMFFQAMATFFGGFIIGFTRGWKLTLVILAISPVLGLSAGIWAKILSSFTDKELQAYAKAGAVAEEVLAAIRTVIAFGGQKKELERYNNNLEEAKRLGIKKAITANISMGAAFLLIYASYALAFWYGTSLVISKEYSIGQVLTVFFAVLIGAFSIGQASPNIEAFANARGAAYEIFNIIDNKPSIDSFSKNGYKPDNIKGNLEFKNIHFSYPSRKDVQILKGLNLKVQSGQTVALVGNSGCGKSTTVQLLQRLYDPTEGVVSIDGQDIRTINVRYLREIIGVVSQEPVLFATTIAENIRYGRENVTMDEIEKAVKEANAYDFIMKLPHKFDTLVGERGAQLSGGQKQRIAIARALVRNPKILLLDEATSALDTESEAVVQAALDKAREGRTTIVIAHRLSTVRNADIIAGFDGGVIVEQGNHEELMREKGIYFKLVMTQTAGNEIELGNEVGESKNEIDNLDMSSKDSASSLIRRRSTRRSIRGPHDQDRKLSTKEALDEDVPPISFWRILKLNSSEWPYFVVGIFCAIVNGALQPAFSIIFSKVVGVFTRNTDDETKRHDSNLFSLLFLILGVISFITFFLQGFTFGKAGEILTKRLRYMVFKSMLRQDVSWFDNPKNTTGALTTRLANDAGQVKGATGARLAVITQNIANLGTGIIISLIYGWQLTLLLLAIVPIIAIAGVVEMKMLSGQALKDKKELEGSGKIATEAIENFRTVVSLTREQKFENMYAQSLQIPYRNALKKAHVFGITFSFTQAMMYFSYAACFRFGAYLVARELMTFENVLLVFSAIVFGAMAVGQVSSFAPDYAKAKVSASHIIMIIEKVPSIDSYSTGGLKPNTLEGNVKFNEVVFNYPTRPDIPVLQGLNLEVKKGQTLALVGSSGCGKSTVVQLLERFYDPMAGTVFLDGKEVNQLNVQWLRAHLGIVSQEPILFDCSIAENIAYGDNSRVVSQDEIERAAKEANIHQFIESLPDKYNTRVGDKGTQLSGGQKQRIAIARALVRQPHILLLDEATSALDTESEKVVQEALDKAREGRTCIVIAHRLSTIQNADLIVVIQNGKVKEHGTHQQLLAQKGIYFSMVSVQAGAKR
# TEST SUMMARY: Fluorosome-trans-pgp
# DETAILS: IC50 Fl-t-pgp, inhibition of S-HR transport, 2 mM ATP, 23°C
QUANTITY MEASURED: IC50 (µM)

| MOLECULE | DISPLAY UNIT | EXPERIMENTAL VALUE |
| --- | --- | --- |
| CCOC(=O)C1=C(C)NC(C)=C(C(=O)OC)C1c1cccc([N+](=O)[O-])c1 (centres unmarked) | µM | 5.8 |

[a] COc1cc2c(cc1OC)CN(CCc1ccc(NC(=O)c3cccc4c(=O)c5cccc(OC)c5[nH]c34)cc1)CC2
[b] COC(=O)C1=C(C)NC(C)=C(C(=O)OC(C)C)C1c1cccc2nonc12 (centres unmarked)
[c] CCCN(CCC)S(=O)(=O)c1ccc(C(=O)O)cc1
[d] CC(=O)O[C@H]1C(=O)[C@@]2(C)[C@H]([C@H](OC(=O)c3ccccc3)[C@]3(O)C[C@H](OC(=O)[C@H](O)[C@@H](NC(=O)c4ccccc4)c4ccccc4)C(C)=C1C3(C)C)[C@]1(OC(C)=O)CO[C@@H]1C[C@@H]2O
Prompt: Place the items in sequence of falling IC50. Answer by listing the labels in the requested order.
Response: c, b, d, a
